targetEntity: Somatostatin receptor type 4 (Homo sapiens, UniProt P31391)
Sequence (P31391 whole entry): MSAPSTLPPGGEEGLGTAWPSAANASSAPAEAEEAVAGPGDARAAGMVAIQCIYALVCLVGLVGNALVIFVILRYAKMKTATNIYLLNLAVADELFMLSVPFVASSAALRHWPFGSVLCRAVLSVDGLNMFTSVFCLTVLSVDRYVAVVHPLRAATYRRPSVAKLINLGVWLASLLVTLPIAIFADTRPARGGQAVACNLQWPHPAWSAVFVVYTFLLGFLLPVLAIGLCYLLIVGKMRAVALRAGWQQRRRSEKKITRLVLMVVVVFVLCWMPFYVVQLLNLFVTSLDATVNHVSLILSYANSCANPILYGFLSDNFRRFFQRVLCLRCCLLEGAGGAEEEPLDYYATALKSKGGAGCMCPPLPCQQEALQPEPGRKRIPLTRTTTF
pIC50: −log10 of the molar value.
quantity: pIC50

I have this molecule here, Cn1cc(C2(c3cc(C(=O)O)ccn3)N[C@@H](c3nc(-c4ccc(F)cc4)c[nH]3)Cc3c2[nH]c2ccccc32)cn1 (single isomer, unassigned; 3A) , and I need its recorded pIC50. < 5.00

* * *

procedureSummary: in vivo
protocolConditions: dog, iv, 50 mg/kg
quantity: Cmax at 0.5 h (µM)
All answers are understood in µM, so give the number only.

So what does the record say about Cmax at 0.5 h for Cn1cc(C2(c3cc(C(=O)O)ccn3)N[C@@H](c3nc(-c4ccc(F)cc4)c[nH]3)Cc3c2[nH]c2ccccc32)cn1 (single isomer, unassigned; 3A) ? 909
